- Experimental details: In vitro stability of drug-linker / model drug-linker compounds to spontaneous hydrolysis of the methylene carbamate unit (LC/MS)
- Format: physicochemical
- Condition details: 0.1M PBS, pH 7.4, at 37° C.
- Experimental: General procedure for testing Drug-Linker stability: Final N-acetyl products of Example 8 were dissolved in 1 mL 0.1 M phosphate buffered saline, pH 7.4, in a vial at 37° C. LC/MS samples were prepared by adding 2 μL aliquots of incubated compound solution to 100 μL of MeOH in an HPLC vial. Each conjugate was tested every 24 h for 7 days. […]
Measured parameter: Relative Degradation Half-life Observed by LC/MS

- Molecule: "CC(=O)Nc1cc(COC(=O)N(CCN(C)C)COCCc2ccccc2)ccc1O[C@@H]1O[C@H](C(=O)O)[C@@H](O)[C@H](O)[C@H]1O"
  Result: "None Observed"
- Molecule: "C=CC[C@@H]1/C=C(\\C)C[C@H](C)C[C@H](OC)[C@H]2O[C@@](O)(C(=O)C(=O)N3CCCC[C@H]3C(=O)O[C@H](/C(C)=C/C3CC[C@@H](OCNC(=O)OCc4ccc(NC(=O)[C@H](CCCNC(N)=O)NC(=O)[C@@H](NC(=O)CCN5C(=O)C=CC5=O)C(C)C)cc4)[C@H](OC)C3)[C@H](C)[C@@H](O)CC1=O)[C@H](C)C[C@@H]2OC (stereo partly drawn)"
  Result: "None Observed"
- Molecule: "CCN(CO[C@H]1C2[C@H]3O[C@H]3[C@H]3C4=C(CC[C@]3(C)[C@@]23O[C@H]3[C@@H]2O[C@]12C(C)C)C(=O)OC4)C(=O)OCc1ccc(O[C@@H]2OC(C(=O)O)[C@@H](O)[C@H](O)C2O)c(NC(=O)CCNC(=O)CCN2C(=O)C=CC2=O)c1 (stereo partly drawn)"
  Result: "None Observed"

----------
- Experimental details: In vitro stability of drug-linker / model drug-linker compounds to spontaneous hydrolysis of the methylene carbamate unit (LC/MS)
- Assay type: physicochemical
- Condition details: 0.1 M phosphate buffered saline, pH 7.4, 37° C.; tested every 24 h for 7 days by LC/MS
Measured parameter: degradation / stability to spontaneous hydrolysis

- Molecule: "COCCOCCOCCOCCOCCOCCOCCOCCN(COC(C)Cc1ccccc1)C(=O)OCc1ccc(O[C@@H]2O[C@H](C(=O)O)[C@@H](O)[C@H](O)[C@H]2O)c(NC(C)=O)c1 (stereo partly drawn) [Compound 8.32]"
  Result: "no signs of degradation"
- Molecule: "CCN(COCCc1ccccc1)C(=O)OCc1ccc(O[C@@H]2O[C@H](C(=O)O)[C@@H](O)[C@H](O)[C@H]2O)c(NC(C)=O)c1 [Compound 8.25]"
  Result: "suitable stability"
- Molecule: "CCN(COC(C)(C)Cc1ccccc1)C(=O)OCc1ccc(O[C@@H]2O[C@H](C(=O)O)[C@@H](O)[C@H](O)[C@H]2O)c(NC(C)=O)c1 [Compound 8.27]"
  Result: "suitable stability"
- Molecule: "CCN(COC(C)Cc1ccccc1)C(=O)OCc1ccc(O[C@@H]2O[C@H](C(=O)O)[C@@H](O)[C@H](O)[C@H]2O)c(NC(C)=O)c1 (stereo partly drawn) [Compound 8.26]"
  Result: "no signs of degradation"

----------
- Experimental details: In vitro stability of drug-linker / model drug-linker compounds to spontaneous hydrolysis of the methylene carbamate unit (LC/MS)
- Assay type: physicochemical
- Condition details: phosphate buffered saline; 0.1 M PBS buffer, pH 7.4 at 37° C.
Measured parameter: half-life (h)

- Compound: "C=CC[C@@H]1/C=C(\\C)C[C@H](C)C[C@H](OC)[C@H]2O[C@@](O)(C(=O)C(=O)N3CCCC[C@H]3C(=O)O[C@H](/C(C)=C/C3CC[C@@H](OCNC(=O)OCc4ccc(NC(=O)[C@H](CCCNC(N)=O)NC(=O)[C@@H](NC(=O)CCN5C(=O)C=CC5=O)C(C)C)cc4)[C@H](OC)C3)[C@H](C)[C@@H](O)CC1=O)[C@H](C)C[C@@H]2OC (stereo partly shown) [Compound 6.4]"
  Numeric readout: 10

----------
- Test system: Type B-1 β-glucuronidase (bovine liver)
- Experimental details: Release of free drug or model drug from NAC-conjugates after glucuronidase activation of the Self-immolative Assembly Unit
- Format: biochemical
- Condition details: NAC-conjugate corresponding to the named model drug-linker compound (N-acetyl cap replaced by maleimide Stretcher quenched with N-acetyl-cysteine)
Each record here notes measured Time to 100% Release.
Measured parameter: Time to 100% Release

- Molecule: "CCN(CSCCc1ccccc1)C(=O)OCc1ccc(O[C@@H]2O[C@H](C(=O)O)[C@@H](O)[C@H](O)[C@H]2O)c(NC(C)=O)c1"
  Measured parameter: "Time to 100% Release"
  Result: "40 min"
- Molecule: "CCN(COC(C)(C)Cc1ccccc1)C(=O)OCc1ccc(O[C@@H]2O[C@H](C(=O)O)[C@@H](O)[C@H](O)[C@H]2O)c(NC(C)=O)c1"
  Measured parameter: "Time to 100% Release"
  Result: "15 min"
- Molecule: "CCN(COc1cccc2ccccc12)C(=O)OCc1ccc(O[C@@H]2O[C@H](C(=O)O)[C@@H](O)[C@H](O)[C@H]2O)c(NC(C)=O)c1"
  Measured parameter: "Time to 100% Release"
  Result: "25 min"
- Molecule: "CC(=O)Nc1cc(COC(=O)N(CCN(C)C)COCCc2ccccc2)ccc1O[C@@H]1O[C@H](C(=O)O)[C@@H](O)[C@H](O)[C@H]1O"
  Measured parameter: "Time to 100% Release"
  Result: "15 min"
- Molecule: "COCCOCCOCCOCCOCCOCCOCCOCCN(COC(C)Cc1ccccc1)C(=O)OCc1ccc(O[C@@H]2O[C@H](C(=O)O)[C@@H](O)[C@H](O)[C@H]2O)c(NC(C)=O)c1 (some centres unmarked)"
  Measured parameter: "Time to 100% Release"
  Result: "15 min"
- Molecule: "CCN(COCCc1ccccc1)C(=O)OCc1ccc(O[C@@H]2O[C@H](C(=O)O)[C@@H](O)[C@H](O)[C@H]2O)c(NC(C)=O)c1"
  Measured parameter: "Time to 100% Release"
  Result: "15 min"
- Molecule: "CC(=O)Nc1cc(COC(=O)N(CCN(C)C)COC(C)(C)Cc2ccccc2)ccc1O[C@@H]1O[C@H](C(=O)O)[C@@H](O)[C@H](O)[C@H]1O"
  Measured parameter: "Time to 100% Release"
  Result: "15 min"
- Molecule: "CCN(COC(C)Cc1ccccc1)C(=O)OCc1ccc(O[C@@H]2O[C@H](C(=O)O)[C@@H](O)[C@H](O)[C@H]2O)c(NC(C)=O)c1 (some centres unmarked)"
  Measured parameter: "Time to 100% Release"
  Result: "45 min"

----------
- Experimental details: In vitro stability of drug-linker / model drug-linker compounds to spontaneous hydrolysis of the methylene carbamate unit (LC/MS)
- Assay type: physicochemical
- Condition details: 0.1M PBS, pH 7.4, at 37° C.
Measured parameter: Relative Degradation Half-life Observed by LC/MS (h)

- Sample smiles: "CO[C@H]1C[C@@H]2CC[C@@H](C)[C@@](O)(O2)C(=O)C(=O)N2CCCC[C@H]2C(=O)O[C@H]([C@@H](C)C[C@H]2CC[C@@H](OCCOCNC(=O)OCc3ccc(NC(=O)[C@H](CCCNC(N)=O)NC(=O)[C@@H](NC(=O)CCN4C(=O)C=CC4=O)C(C)C)cc3)[C@H](OC)C2)CC(=O)[C@H](C)/C=C(\\C)[C@@H](O)[C@@H](OC)C(=O)[C@H](C)C[C@H](C)/C=C/C=C/C=C/1C"
  Unit text: "h"
  Numeric readout: 170
